Recorded growth inhibition by entry
Assay: NCI Yeast Anticancer Drug Screen. Data for the mlh1 rad18 strain (AID 175)
Conditions: S. cerevisiae mlh1 rad18 strain growth inhibition; at 50.0 µM; stronger effect = higher value
Procedure: Growth inhibition of yeast strains with defined genetic alterations is measured as a screen for potential anti-cancer activity. Selected strains with alterations in DNA damage repair or cell cycle control were exposed to compounds and growth inhibition was measured relative to vehicle treated controls. The strain used in this assay is mlh1 rad18
This is part of a sample that, as a whole, favours compounds with a hit. Of some 79,000 tested, about 15% had one in any assay.
API: value field is a number in %; no unit string.

# compound, output_unit, growth inhibition
rows = [
    ("COC(=O)C1=C(C(=O)OC)C2C(C)=CC(C)=CN2C(C(=O)OC)=C1C(=O)OC (stereo not given)", "%", 25.4),
]

Query: Answer with reported growth inhibition of OC1(c2ccc(Br)cc2)C2CCCCC2C2CCCCC21 (stereo not given)
Response: 98.2

Query: Answer with reported growth inhibition of "CSc1cc2c(cc1N)Cc1ccccc1-2"
Response: 97.3

Query: Answer with reported growth inhibition of "CCOC(=O)N1CCN(C=S)CC1"
Response: 38.2
